# Target Or System: human dopamine D3 receptors (Homo sapiens, UniProt P35462)
# Construct: expressed in transfected cells; membranes
# Sequence (P35462 whole entry): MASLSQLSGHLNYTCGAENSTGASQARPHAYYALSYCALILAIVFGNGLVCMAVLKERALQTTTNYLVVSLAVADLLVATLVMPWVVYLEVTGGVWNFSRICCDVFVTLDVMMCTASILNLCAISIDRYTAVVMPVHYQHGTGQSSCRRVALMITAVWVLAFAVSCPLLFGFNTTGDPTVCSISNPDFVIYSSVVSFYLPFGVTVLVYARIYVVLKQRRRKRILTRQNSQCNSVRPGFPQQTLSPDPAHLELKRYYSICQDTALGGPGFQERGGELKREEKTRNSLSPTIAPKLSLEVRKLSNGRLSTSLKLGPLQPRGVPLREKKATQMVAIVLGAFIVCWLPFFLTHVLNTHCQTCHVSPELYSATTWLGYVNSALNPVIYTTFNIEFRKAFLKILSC
# Test Details: Dopamine D3 receptor binding, [125I]-iodosulpride displacement
# Settings: selectivity ratio of receptor binding constants D2 versus D3
The entries below are paired with their reported Ki(D2)*/Ki(D3)*.
Number only, no unit.

Consider the reported Ki(D2)*/Ki(D3)* for these compounds:
C=CCN1CCC[C@H]2c3ccc(NS(=O)(=O)c4ccc(C(C)C)cc4)cc3CC[C@@H]21 [Example 19] = 21
C=CCN[C@H]1CCc2cc(NS(=O)(=O)c3ccc(C(C)C)cc3)ccc2C1.Cl [Example 7] = 77
CCCN(CCC)[C@@H]1CCc2cc(NS(=O)(=O)c3ccc(C(C)C)cc3)ccc2C1.Cl [Example 29] = 4
CCCN[C@H]1CCc2cc(N(C)S(=O)(=O)c3ccc(C(C)C)cc3)ccc2C1 [Example 10] = 29
CCCN[C@H]1CCc2cc(NS(=O)(=O)c3ccc([C@H](C)C(F)(F)F)cc3)ccc2C1 [Example 42] = 263

get_value(item= CCC(=O)N1CCC[C@@H]2Cc3cc(NS(=O)(=O)c4ccc(C(C)C)cc4)ccc3C[C@H]21 (relative stereo) [Example 22] , readout=Ki(D2)*/Ki(D3)*) returns 96

get_value(item= CCCN[C@H]1CCc2cc(NS(=O)(=O)c3ccc(CCCF)cc3)ccc2C1 [Example 51] , readout=Ki(D2)*/Ki(D3)*) returns 56

get_value(item= CCCN[C@H]1CCc2cc(NS(=O)(=O)c3ccc(N4CCCC4)cc3)ccc2C1.Cl [Example 49] , readout=Ki(D2)*/Ki(D3)*) returns 63

get_value(item= CCCN[C@H]1CCc2cc(NS(=O)(=O)c3ccc(-n4cccn4)cc3)ccc2C1.Cl [Example 76] , readout=Ki(D2)*/Ki(D3)*) returns 84

get_value(item= CCCNC1COc2cc(NS(=O)(=O)c3ccc(C(C)C)cc3)cnc2C1 (centres unmarked) [Example 35] , readout=Ki(D2)*/Ki(D3)*) returns 406
